molecular target: T1, RNA polymerase core enzyme (subunits α2ββ'ω) (E. coli, UniProt P0A7Z4 1-329; P0A8V2 1-1342; P0A8T7 1-1407; P0A800 1-91); test: BLI; Octet RED96, 303 K; biotinylated ligand on streptavidin biosensors, analyte in a dose series, 0.1% BSA; association and dissociation 1000 s each; which partner was immobilised is not told; conditions: both partners purified
T1 construct: RNA polymerase subunit alpha, E. coli; RNA polymerase subunit beta, E. coli; RNA polymerase subunit beta', E. coli; RNA polymerase subunit omega, E. coli; also called RNAP core-enzyme; source: expressed from plasmid pIA900, purified as by Svetlov and Artsimovitch with an added SEC step (Superose6); copies: 2 + 1 + 1 + 1
T1 sequence (P0A7Z4 whole entry, chain 1 of 4): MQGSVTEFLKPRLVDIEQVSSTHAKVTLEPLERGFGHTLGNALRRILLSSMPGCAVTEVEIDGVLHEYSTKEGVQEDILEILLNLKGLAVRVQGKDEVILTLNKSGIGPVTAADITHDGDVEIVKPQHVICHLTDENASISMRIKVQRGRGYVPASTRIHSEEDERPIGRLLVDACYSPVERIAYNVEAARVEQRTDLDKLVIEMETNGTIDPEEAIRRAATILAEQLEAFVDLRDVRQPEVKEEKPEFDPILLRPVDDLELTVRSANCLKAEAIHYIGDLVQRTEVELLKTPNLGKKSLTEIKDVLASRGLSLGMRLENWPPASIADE
T1 sequence (P0A8V2 whole entry, chain 2 of 4): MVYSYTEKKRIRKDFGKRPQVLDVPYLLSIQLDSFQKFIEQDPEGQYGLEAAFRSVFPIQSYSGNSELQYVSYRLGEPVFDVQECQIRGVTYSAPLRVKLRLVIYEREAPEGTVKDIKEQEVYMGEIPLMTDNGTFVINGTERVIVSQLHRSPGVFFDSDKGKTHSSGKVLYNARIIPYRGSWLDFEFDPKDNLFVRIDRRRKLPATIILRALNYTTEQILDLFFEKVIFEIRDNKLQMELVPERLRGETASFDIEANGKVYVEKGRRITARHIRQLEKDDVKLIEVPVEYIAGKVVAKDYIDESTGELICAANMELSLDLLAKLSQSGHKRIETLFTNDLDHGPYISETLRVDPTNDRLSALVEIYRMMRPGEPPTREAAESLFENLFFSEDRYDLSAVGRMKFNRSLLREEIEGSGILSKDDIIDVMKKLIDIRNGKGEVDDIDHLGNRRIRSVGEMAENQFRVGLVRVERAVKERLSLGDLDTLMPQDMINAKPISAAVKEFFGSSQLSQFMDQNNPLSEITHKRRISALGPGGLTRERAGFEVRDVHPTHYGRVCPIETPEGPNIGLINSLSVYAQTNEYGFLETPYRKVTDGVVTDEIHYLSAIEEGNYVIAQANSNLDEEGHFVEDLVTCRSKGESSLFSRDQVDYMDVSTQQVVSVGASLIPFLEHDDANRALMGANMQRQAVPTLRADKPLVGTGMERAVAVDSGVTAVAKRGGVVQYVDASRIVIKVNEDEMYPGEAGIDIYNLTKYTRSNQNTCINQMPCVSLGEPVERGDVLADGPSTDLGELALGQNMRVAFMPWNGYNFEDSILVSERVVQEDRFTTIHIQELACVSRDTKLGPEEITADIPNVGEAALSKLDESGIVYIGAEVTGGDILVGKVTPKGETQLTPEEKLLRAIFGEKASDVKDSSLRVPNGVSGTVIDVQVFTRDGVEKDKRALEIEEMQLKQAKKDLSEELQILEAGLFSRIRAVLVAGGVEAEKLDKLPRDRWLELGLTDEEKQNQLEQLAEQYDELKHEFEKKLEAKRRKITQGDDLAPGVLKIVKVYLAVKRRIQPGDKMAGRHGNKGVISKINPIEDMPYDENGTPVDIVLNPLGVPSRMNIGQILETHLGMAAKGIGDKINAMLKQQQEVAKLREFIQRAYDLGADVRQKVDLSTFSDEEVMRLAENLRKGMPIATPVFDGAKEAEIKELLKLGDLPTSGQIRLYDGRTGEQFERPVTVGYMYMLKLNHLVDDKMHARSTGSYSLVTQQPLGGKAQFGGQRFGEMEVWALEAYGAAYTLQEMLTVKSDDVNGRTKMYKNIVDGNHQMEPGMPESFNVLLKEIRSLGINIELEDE
T1 sequence (P0A8T7 whole entry, chain 3 of 4): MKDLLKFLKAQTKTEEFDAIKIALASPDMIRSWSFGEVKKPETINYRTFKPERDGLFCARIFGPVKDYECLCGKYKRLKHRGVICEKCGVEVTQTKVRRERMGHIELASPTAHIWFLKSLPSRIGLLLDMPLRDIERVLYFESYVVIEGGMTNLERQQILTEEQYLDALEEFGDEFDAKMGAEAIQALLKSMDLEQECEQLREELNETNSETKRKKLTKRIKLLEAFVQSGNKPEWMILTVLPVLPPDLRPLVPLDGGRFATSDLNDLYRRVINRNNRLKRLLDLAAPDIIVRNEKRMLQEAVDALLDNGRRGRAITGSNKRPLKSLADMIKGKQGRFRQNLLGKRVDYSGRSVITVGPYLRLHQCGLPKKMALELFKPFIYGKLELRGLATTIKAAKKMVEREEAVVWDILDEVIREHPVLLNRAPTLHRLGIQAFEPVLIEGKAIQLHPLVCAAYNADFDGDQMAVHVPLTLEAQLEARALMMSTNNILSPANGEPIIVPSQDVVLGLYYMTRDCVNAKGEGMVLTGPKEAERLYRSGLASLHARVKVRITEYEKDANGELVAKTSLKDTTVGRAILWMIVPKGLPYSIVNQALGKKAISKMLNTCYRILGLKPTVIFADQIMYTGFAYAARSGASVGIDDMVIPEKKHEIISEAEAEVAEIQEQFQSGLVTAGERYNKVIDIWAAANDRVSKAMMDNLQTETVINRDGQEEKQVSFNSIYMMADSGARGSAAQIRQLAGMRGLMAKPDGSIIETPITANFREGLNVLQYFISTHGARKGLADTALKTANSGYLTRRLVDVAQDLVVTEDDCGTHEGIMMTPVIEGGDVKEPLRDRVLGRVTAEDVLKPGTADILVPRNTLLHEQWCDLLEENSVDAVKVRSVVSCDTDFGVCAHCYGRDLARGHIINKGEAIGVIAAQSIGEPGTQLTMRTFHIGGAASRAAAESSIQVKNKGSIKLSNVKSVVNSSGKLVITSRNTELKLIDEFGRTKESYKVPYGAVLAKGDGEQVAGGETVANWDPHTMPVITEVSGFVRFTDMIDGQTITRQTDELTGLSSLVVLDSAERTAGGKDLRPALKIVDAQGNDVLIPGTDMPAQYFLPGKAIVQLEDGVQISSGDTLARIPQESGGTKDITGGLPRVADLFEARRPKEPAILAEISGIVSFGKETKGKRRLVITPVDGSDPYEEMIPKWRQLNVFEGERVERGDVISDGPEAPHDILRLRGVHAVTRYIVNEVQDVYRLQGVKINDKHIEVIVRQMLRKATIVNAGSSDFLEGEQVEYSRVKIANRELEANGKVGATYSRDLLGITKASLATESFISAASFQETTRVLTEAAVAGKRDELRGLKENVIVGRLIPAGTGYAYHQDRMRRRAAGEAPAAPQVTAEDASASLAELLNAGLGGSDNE
T1 sequence (P0A800 whole entry, chain 4 of 4): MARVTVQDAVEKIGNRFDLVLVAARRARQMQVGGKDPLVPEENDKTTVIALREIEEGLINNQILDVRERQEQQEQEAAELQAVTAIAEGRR
pKd: −log10 of the molar value.
property name: pKd

- UvrD carboxy-terminal region (UvrD-CTD, residues 645-720) (domain or fragment, E. coli, UniProt P03018 645-720, looked up, UvrD helicase (Helicase II), E. coli, residues 645-720; The His6 tag is called uncleavable; Used [U-15N] labelled in the NMR experiments; source: E. coli BL21(λDE3) pLysS, purified (Ni-NTA, SEC); not shown: His6, N-terminal, kept) RLRATVSRPVSHQRMGTPMVENDSGYKLGQRVRHAKFGEGTIVNMEGSGEHSRLQVAFQGQGIKWLVAAYARLESV: 7.11
- Mfd RNAP Interaction Domain (Mfd-RID, residues 472-547; Domain 4) (domain or fragment, E. coli, UniProt P30958 472-547, looked up, Mfd (Transcription-Repair Coupling Factor, TRCF), E. coli, residues 472-547, comprising Domain 4; Used [U-15N] labelled in the NMR experiments; source: E. coli BL21 Star (λDE3), purified (Ni-NTA, SenP1 cleavage, second Ni-NTA, SEC); not shown: His6, N-terminal, cleaved; Sumo, N-terminal, cleaved) RNLAELHIGQPVVHLEHGVGRYAGMTTLEAGGITGEYLMLTYANDAKLYVPVSSLHLISRYAGGAEENAPLHKLGG: 6.60
